TARGET_DESC: Poly [ADP-ribose] polymerase 1 (Homo sapiens, UniProt P09874)
Sequence (P09874 whole entry): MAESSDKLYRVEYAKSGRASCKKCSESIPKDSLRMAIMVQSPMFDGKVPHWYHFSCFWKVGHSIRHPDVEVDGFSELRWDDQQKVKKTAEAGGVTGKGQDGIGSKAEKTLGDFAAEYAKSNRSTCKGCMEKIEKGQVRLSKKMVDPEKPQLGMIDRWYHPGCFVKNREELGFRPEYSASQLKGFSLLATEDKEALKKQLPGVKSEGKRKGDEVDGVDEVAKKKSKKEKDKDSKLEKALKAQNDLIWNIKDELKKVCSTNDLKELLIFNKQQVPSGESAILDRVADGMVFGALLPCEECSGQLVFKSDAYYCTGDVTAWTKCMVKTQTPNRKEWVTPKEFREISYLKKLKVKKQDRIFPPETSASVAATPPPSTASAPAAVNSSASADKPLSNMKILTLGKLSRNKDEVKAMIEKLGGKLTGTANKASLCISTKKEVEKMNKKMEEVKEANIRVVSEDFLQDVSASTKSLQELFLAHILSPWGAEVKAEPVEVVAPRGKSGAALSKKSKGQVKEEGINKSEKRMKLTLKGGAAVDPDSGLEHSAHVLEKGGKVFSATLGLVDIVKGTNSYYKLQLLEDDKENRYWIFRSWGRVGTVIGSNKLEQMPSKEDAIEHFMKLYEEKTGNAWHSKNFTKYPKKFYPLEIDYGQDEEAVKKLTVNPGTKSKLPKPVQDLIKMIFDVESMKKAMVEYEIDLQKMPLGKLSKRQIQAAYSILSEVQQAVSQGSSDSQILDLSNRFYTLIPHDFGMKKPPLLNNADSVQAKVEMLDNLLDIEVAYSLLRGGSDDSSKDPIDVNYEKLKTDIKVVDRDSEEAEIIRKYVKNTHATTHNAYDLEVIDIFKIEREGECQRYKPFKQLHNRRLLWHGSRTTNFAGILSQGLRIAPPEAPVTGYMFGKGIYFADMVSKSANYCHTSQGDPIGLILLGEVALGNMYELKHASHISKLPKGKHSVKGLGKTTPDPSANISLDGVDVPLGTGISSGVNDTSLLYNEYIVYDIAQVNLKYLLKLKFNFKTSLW
METHOD_NOTES: Inhibition of human recombinant PARP-1 after 1 hr by ELISA
MEASUREMENT_KIND: IC50 (nM)
Please give a number only; it is taken to be in nM.

{"SMI": "CN(C)CCCNC(=O)c1cc2[nH]c(=O)c3ccccc3c2n1C", "OBSERVED": 300}
{"SMI": "Cn1c(C(=O)N2CCCNCC2)cc2[nH]c(=O)c3ccccc3c21", "OBSERVED": 100}
{"SMI": "Cn1c(C(=O)N2CC=C(c3ccc(F)cc3)CC2)cc2c1-c1ccccc1C(=O)NC2", "OBSERVED": 1670}

# IC50 of `Cc1c(C(=O)N2CCN(C)CC2)sc2c1[nH]c(=O)c1ccccc12` = 231

# IC50 of `CC(C)S(=O)(=O)N1CCN(C(=O)c2cc3[nH]c(=O)c4ccccc4c3n2C)CC1` = 600

# IC50 of `Cc1c(C(=O)NCCN2CCCC2)sc2c1[nH]c(=O)c1ccccc12` = 248

# IC50 of `Cn1c(C(=O)N2CCNCC2)cc2[nH]c(=O)c3ccccc3c21` = 44

# IC50 of `Cn1c(C(=O)N2CCCNCC2)c(Br)c2[nH]c(=O)c3ccccc3c21` = 100
